FYI, the data here is from patent US11384078B2.

Field: pEC50. Provide a value for each of the compounds that follow.
System: L. donovani HU3 strain in mouse peritoneal macrophages
Test: Assay for inhibition of parasitemia of Leishmania donovani in mouse macrophages (SYBR Green nuclei count, high-content imaging)
Type: cell-based
Settings: Leishmania donovani, Peritoneal macrophage, L. donovani in mouse peritoneal macrophages; read-out: L. donovani in Mouse Macrophages EC50
Answers are plain numbers, as −log10 of the molar value.

Recorded pEC50, per entry:
O=C(Nc1ccc(F)c(-n2cc3cc(C4CCN(Cc5ccccc5)CC4)cnc3n2)c1)N1CC(F)C1: 8.70
O=C(Nc1ccc(F)c(-n2cc3cc(N4CC5(CC5)C4)cnc3n2)c1)N1CC(F)C1: 8.00
O=C(Nc1ccc(F)c(-n2cc3cc(Br)cnc3n2)c1)N1CC[C@@H](F)C1: 7.77

Hey, can you go through the list below and give me pEC50 for every item?
1. CC(C)c1cnc2nn(-c3cc(NC(=O)c4ccc(C#N)cn4)ccc3F)cc2c1
2. CC(C)CCc1cnc2nn(-c3cc(NC(=O)N4CC(F)(F)C4)ccc3F)cc2c1

1: 5.16; 2: 7.48

###

Field: pEC50. Provide a value for each of the compounds that follow.
System: Trypanosoma cruzi amastigotes cultured in 3T3 fibroblast cells
Assay: Assay for growth inhibition of kinetoplastid parasite Trypanosoma cruzi (beta-galactosidase Tulahuen strain, CPRG readout)
Format: cell-based
Settings: Trypanosoma cruzi, Fibroblast, Table 4: compound of Formula (I) compared with compounds having a different core; read-out: Buckner infectious T. cruzi EC50
Give bare numbers, as −log10 of the molar value.

Cc1nc(C)c(C(=O)Nc2ccc(F)c(-c3cn4nc(C(C)(C)C)cnc4n3)c2)o1 [reference compound]: 7.24
Cc1nc(C)c(C(=O)Nc2ccc(F)c(-c3nc4ncc(C(C)C)cn4n3)c2)o1 [reference compound]: 7.35
Cc1nc(C)c(C(=O)Nc2ccc(F)c(-c3cn4cc(C(C)C)cnc4n3)c2)o1 [reference compound]: 7.32
Cc1nc(C)c(C(=O)Nc2ccc(F)c(-c3nc4ncc(C(C)(C)C)cn4n3)c2)o1 [reference compound]: 7.66

With those in mind, consider the next compound.
Provide the documented pEC50 with Trypanosoma cruzi amastigotes cultured in 3T3 fibroblast cells as the system for Cc1nc(C)c(C(=O)Nc2ccc(F)c(-n3cc4cc(C(C)C)cnc4n3)c2)o1 [drawing 458]
7.82

###

Test system: L. donovani HU3 strain in mouse peritoneal macrophages
Assay: Assay for inhibition of parasitemia of Leishmania donovani in mouse macrophages (SYBR Green nuclei count, high-content imaging)
Format: cell-based
Conditions: Leishmania donovani, Peritoneal macrophage, L. donovani in mouse peritoneal macrophages; read-out: L. donovani in Mouse Macrophages EC50
So basically, if EC50 comes in under 6 nM it's T, and if it's 6 nM or more it's F.

O=C(Nc1ccc(F)c(-n2cc3cc(-c4ccc(F)cn4)cnc3n2)c1)N1CC(F)C1: T

Bench note: check whether CC(C)c1cnc2nn(-c3cc(NC(=O)C4CCC(C(F)(F)F)C4)ccc3F)cc2c1 (stereo not shown) shows EC50 below 6 nM
F

Bench note: check whether "O=C(Nc1ccc(F)c(-n2cc3cc(C4CCCCC4)cnc3n2)c1)N1CC[C@@H](F)C1" shows EC50 below 6 nM
F

Bench note: check whether "O=C(Nc1ccc(F)c(-n2cc3cc(CC(F)(F)F)cnc3n2)c1)N1CC(F)(F)C1" shows EC50 below 6 nM
T
